These data points were gathered from paper PMC8987933.

test: clinical; settings: male, human, in vivo, 10 mg

{"smiles entry": "CC(C)c1nc(N(C)S(C)(=O)=O)nc(-c2ccc(F)cc2)c1/C=C/[C@@H](O)C[C@@H](O)CC(=O)O", "unit annotation": "ng·h/mL", "AUC(0-t)": 109}

====

Test: clinical
Conditions: male, human, in vivo, 10 mg
Procedure: Healthy Chinese male subjects aged 18–45 years were recruited from a pool of over 200 healthy volunteers who had been genotyped for the ABCG2 421C>A (rs2231142) polymorphism. […] Plasma concentrations of rosuvastatin were determined by Liquid Chromatography-Tandem Mass Spectrometry (LC-MS/MS) using the corresponding isotopically labeled compound as an internal standard as described ([28]). […] The lower limit of quantification of rosuvastatin was 0.05 μg/L by using 200 μL plasma. […]

{"smiles entry": "CC(C)c1nc(N(C)S(C)(=O)=O)nc(-c2ccc(F)cc2)c1/C=C/[C@@H](O)C[C@@H](O)CC(=O)O", "AUC(0-inf), ng·h/mL": 118}
